B1: TRIM14 (parent)
chain: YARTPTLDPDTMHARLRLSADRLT

Variants of: B1
assay summary: protein stability index of a GFP-peptide fusion (GPS, HEK-293T) (PSI 1-6); higher = more stable;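 further: lentivirally expressed fusions sorted by FACS into six bins by GFP to DsRed ratio, PSI derived from sequencing read proportions per bin multiplied by bin number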
cond: c terminus: a fixed tail appended
endpoint name: protein stability index
Response field accepts a number only; no unit should be typed.

State its protein stability index: D8C
2.1

Assign protein stability index to the following record: R15W
1.95

Complete the entry with protein stability index for D8N
2.58

Read the entry T24E and write its reported protein stability index.
3.02

Note down protein stability index recorded for R22E
3.31

Output protein stability index of A14Q
2.59

Give me measured protein stability index, please, for this variant: P5L
2.34

Please report protein stability index for the following variant: P9Y
2.22

Answer with reported protein stability index of S19E
2.93

Answer with the recorded protein stability index of D10L only.
2.05

For T11F , write its protein stability index.
2.04

Quote protein stability index reported for R22Q please.
2.59

Give the measured protein stability index for R22W
2.01

Consider the variant L18T and give its recorded protein stability index.
2.42

// fetch protein stability index given entry M12G
2.89

Determine from records and report protein stability index for R17G
3.01

Please look at this variant and report its protein stability index: T24P
2.17

Tell me its protein stability index given A2E as the entry.
3.71

Determine from records and report protein stability index for P9E
2.56

Note protein stability index for the variant shown: P5R
1.98

Give recorded protein stability index. R3E
2.18

Tell me its protein stability index given R3C as the entry.
3.02

Give me measured protein stability index, please, for this variant: P5V
1.96

Indicate its recorded protein stability index; the variant in question is R17T
2.91

Output measured protein stability index for this item: S19L
2.33

Output protein stability index of D21T
2.61

Please report the measured protein stability index for H13R
2.87

Read the entry A14N and write its reported protein stability index.
3.08

Consider the variant D21M . State its measured protein stability index.
1.96

// Input: S19I . Output its protein stability index only.
2.79

Read the entry T24N and write its reported protein stability index.
2.92

Respond only with protein stability index recorded for L7S
2.98

Look up protein stability index of A20K and report it.
3.38

Determine its reported protein stability index: D21V
1.52

Answer with the recorded protein stability index for the variant listed here: R15P
2.83

Retrieve protein stability index measured for H13Q and print it.
2.84

Supply protein stability index value. Item: R15N
2.61

Supply protein stability index value. Item: R3V
3

// Input: T24C . Output its protein stability index only.
2.51

Could you please provide reported protein stability index for H13V ? Thanks!
2.23

Kindly indicate its recorded protein stability index. Item: T24S
2.54

Identify measured protein stability index associated with T4C
1.95

Query protein stability index for P9V
2.41

Return reported protein stability index. Input variant: D10Q
2.56

Quick one: give measured protein stability index for M12K
2.72

Tell me its protein stability index given L16C as the entry.
1.93

Supply recorded protein stability index for Y1D here.
3.61

Return protein stability index (reported value) for this variant: L7F
2.54

Please report the measured protein stability index for R3K
2.87

Provide measured protein stability index value, entry: S19T
2.77

Specify protein stability index for T4Q and stop.
2.84

State its protein stability index: T4V
2.78

Tell me protein stability index reported for D10K
3.05

Given L23D , respond with its protein stability index.
3.38

Input L7K , output reported protein stability index.
2.56

Provide measured protein stability index value, entry: T6H
2.44

For the variant A14H , give its reported protein stability index.
2.04

Quote protein stability index reported for D10G please.
2.48

Write down protein stability index measured for item L16T
3.02

Name the recorded protein stability index of the item D8K in your answer.
2.95

Tell me its protein stability index given L23K as the entry.
3.43

Give the measured protein stability index for L18A
3.6

Using the record for D10Y , state its measured protein stability index.
2.34

Dear colleague, please send me the reported protein stability index for L18K when you can.
2.51

Answer with reported protein stability index of D10M
2.4

Fill in reported protein stability index for this entry: R17C
2.25

Determine its reported protein stability index: R17Y
2.27

Input T11R , output reported protein stability index.
3.65

Indicate its recorded protein stability index; the variant in question is A2M
2.69

Please list protein stability index recorded for the variant T4H
2.67

Answer with reported protein stability index of R22D
3.09

Supply measured protein stability index of L7Y in your reply.
2.63

For the variant L23G , give its measured protein stability index value.
2.58

Fill in protein stability index for record D10E
2.66

Retrieve protein stability index measured for M12D and print it.
3.94

Note protein stability index for the variant shown: L18H
2.82

Provide one value: measured protein stability index of T4K
2.61

Indicate the recorded protein stability index value for this variant: R22Y
2.62

Tell me protein stability index reported for R3S
2.86

Indicate its recorded protein stability index; the variant in question is R22N
2.77

Answer with reported protein stability index of P9R
2.96

Indicate the recorded protein stability index value for this variant: T4W
1.17

Write down protein stability index measured for item R17E
3.04

// fetch protein stability index given entry A20I
2.85

Tell me protein stability index reported for P5A
2.08

State its protein stability index for this variant: R22C
2.76

Respond only with protein stability index recorded for D8I
2.24

Fill in protein stability index for record P9L
2.1

Give the reported protein stability index for this variant. A2G
3.06

Answer with reported protein stability index of H13A
2.62

Fill in protein stability index for record L7I
1.94
